measured_target: T1, human Gro-gamma (human, UniProt P19876 35-107)
T1 sequence (looked up): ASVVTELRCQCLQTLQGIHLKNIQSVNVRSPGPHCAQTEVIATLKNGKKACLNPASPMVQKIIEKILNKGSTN
assay_text: cell-based or functional assay
quantity: FLIPR IC50 (mg/L)
Just the number in mg/L, nothing appended.

input: Look at this binder and give its reported FLIPR IC50. 1A1.4C6 (antibody, IgG1, V domains shown) VH: EVQLQQSGPELVKPGASVKISCKASGYTFIDYYMNWVKQSQGKSLEWIGDVNPDDGDTTYNQQFKDKATLTVDKSSSTAYMELRSLTSEDSAVYYCARDDRTSGYFDVWGTGTTVTVSS VL: DIQMTQSTSSLSASLGDRVTISCRASQDIRNYLNWFQQKPDGTVKLLIYYTSIVHSRVPSRFSGSGSGTDYSLTINNLDQEDIATYFCQQANTLPWTFGGGTKLETK
output: 19.2
